- TESTED ON: Calf polymerase alpha (Bos taurus)
- Construct: purchased Replizyme Ltd (Heslington, York, UK)
- TEST SUMMARY: Calf polymerase alpha inhibition (Replizyme kit)
- Type: biochemical
- CONDITION SUMMARY: at 10 μM, single point screening
Kindly return yes (1) if reported % Inhibition is no lower than 60%; return no (0) if it is lower.

Please review the following examples before continuing.
Cc1ccc(NC(=O)[C@H](CCCCN)NC(=O)NC2c3ccccc3-c3ccccc32)cc1
yes (1)
Cc1ccc(NC(=O)[C@H](CCCCN)NC(=O)Nc2cccc(Oc3ccccc3)c2)cc1
yes (1)
Cc1ccc(NC(=O)[C@@H](N)CCCCN)cc1
no (0)
Cc1ccc(NC(=O)CC2CN(C(=O)[C@H](C)N)CCN2C(=O)OCC2c3ccccc3-c3ccccc32)cc1 (stereo partly shown)
no (0)
Cc1ccc(NC(=O)[C@H](Cc2ccc(CN)cc2)NC(=O)Nc2ccc(OCc3ccccc3)cc2)cc1
yes (1)
CCNCC(=O)N1CCN(C(=O)OCC2c3ccccc3-c3ccccc32)C(CC(=O)Nc2ccc(C)cc2)C1 (stereo not shown)
no (0)
Cc1ccc(NC(=O)[C@H](CN)NC(=O)OCC2c3ccccc3-c3ccccc32)cc1
yes (1)
Cc1ccc(NC(=O)[C@H](CCN)NC(=O)OCC2c3ccccc3-c3ccccc32)cc1
yes (1)
Cc1ccc(NC(=O)[C@H](CCCCN)NC(=O)CNc2ccccc2Oc2ccccc2)cc1
yes (1)
Cc1ccc(NC(=O)[C@H](CCCCN)NC(=O)Nc2ccc(Cc3ccccc3)cc2)cc1
yes (1)

Reported % Inhibition at or above 60%? Cc1ccc(NC(=O)[C@H](CCCCN)NC(=O)Nc2cccc(-c3ccccc3)c2)cc1
no (0)

Reported % Inhibition at or above 60%? Cc1ccc(NC(=O)[C@H](CCCCN)NC(=O)Nc2ccc(OCc3cccc(F)c3)cc2)cc1
yes (1)

Reported % Inhibition at or above 60%? Cc1ccc(NC(=O)[C@H](CCCCN(C)C)NC(=O)OCC2c3ccccc3-c3ccccc32)cc1
yes (1)

Reported % Inhibition at or above 60%? Cc1ccc(NC(=O)[C@H](CCCCN)NC(=O)Nc2ccc(OCc3cccnc3)cc2)cc1
no (0)

Reported % Inhibition at or above 60%? Cc1ccc(N(C)C(=O)[C@H](CCCCN)NC(=O)OCC2c3ccccc3-c3ccccc32)cc1
no (0)

Reported % Inhibition at or above 60%? Cc1ccc(NC(=O)[C@H](CNC(=O)CN)NC(=O)Nc2ccc(OCc3ccccc3)cc2)cc1
yes (1)

====

Exercise: for every item that follows, state its recorded inhibition at 10 µM.
- TESTED ON: Calf polymerase alpha (Bos taurus, UniProt A0AAA9TD94)
- Construct: purchased Replizyme Ltd (Heslington, York, UK)
- TEST SUMMARY: Calf polymerase alpha inhibition (Replizyme kit)
- Assay type: biochemical
- CONDITION SUMMARY: at 10 μM, single point screening
Answers are plain numbers, in %.

Before answering, review these 3 worked examples.
NCc1ccc(NC(=O)[C@@H](NC(=O)Nc2ccc(OCc3ccccc3)cc2)c2ccccc2)cc1
104
Cc1cc2cc(NC(=O)[C@H](CCCCN)NC(=O)Nc3ccc(OCc4ccccc4)cc3)ccc2[nH]1
87
Cc1ccc(NC(=O)C(CCCCN)NC(=O)OCC2c3ccccc3-c3ccccc32)cn1 (stereo not shown)
19

Pending compound:
Looking for the measured inhibition at 10 µM of NCCCCN(CC(=O)Nc1ccc(C2CCCCC2)cc1)C(=O)Nc1ccc(C=Cc2ccccc2)cc1 , can you help?
92.5

====

- TESTED ON: Calf polymerase alpha (Bos taurus, UniProt A0AAA9TD94)
- Construct: purchased Replizyme Ltd (Heslington, York, UK)
- Sequence (A0AAA9TD94 1-1441): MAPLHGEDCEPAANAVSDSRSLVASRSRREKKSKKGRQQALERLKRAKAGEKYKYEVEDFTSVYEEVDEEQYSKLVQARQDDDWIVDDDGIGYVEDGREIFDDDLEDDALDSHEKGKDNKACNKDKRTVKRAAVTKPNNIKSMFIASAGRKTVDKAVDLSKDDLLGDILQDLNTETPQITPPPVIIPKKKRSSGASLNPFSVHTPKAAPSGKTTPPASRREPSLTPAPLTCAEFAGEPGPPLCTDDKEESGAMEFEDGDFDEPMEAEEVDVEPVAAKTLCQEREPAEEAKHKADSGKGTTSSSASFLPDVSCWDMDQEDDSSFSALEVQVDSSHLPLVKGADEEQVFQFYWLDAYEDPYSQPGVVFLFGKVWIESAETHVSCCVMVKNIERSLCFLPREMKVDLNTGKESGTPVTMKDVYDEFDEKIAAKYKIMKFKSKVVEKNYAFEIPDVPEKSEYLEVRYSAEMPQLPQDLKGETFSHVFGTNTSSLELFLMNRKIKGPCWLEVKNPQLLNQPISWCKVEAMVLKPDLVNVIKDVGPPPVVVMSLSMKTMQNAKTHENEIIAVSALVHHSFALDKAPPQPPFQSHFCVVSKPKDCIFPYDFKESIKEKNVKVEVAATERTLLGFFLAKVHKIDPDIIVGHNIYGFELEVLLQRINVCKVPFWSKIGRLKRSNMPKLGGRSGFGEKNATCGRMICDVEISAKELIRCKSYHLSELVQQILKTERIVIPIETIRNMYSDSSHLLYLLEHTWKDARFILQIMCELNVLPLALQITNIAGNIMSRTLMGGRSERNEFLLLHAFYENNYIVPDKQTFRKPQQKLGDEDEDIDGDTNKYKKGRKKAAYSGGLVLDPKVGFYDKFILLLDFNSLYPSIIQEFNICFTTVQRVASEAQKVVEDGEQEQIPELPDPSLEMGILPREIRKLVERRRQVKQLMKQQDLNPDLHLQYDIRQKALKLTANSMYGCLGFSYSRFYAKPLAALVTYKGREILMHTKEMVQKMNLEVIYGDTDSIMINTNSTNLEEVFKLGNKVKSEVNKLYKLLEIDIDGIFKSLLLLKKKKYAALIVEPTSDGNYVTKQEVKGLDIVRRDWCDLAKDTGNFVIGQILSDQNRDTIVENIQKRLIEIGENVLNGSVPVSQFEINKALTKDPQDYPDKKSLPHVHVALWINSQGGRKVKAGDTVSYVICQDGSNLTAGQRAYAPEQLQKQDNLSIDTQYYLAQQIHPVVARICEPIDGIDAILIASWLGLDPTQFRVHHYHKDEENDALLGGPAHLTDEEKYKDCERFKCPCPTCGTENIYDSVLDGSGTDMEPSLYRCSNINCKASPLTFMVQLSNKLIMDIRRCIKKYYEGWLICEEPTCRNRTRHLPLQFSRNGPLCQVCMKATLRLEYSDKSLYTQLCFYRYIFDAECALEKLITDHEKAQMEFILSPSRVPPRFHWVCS
- TEST SUMMARY: Calf polymerase alpha inhibition (Replizyme kit)
- Type: biochemical
- CONDITION SUMMARY: at 10 μM, single point screening
READOUT NAME: inhibition at 10 µM (%)
One number for each entry, in %.

Before answering, review these 5 worked examples.
NCCCC[C@@H](NC(=O)Nc1ccc(OCc2ccccc2)cc1)C(=O)Nc1ccc(C2CCCCC2)cc1 [Compound 166]
102
Cc1ccc(NC(=O)[C@@H](CCCCN)NC(=O)Nc2ccc3c(c2)Cc2ccccc2-3)cc1 [Compound 173]
99
NCCCCCCNC(=O)[C@H](Cc1ccccc1)NC(=O)Nc1ccc(OCc2ccccc2)cc1 [Compound 263]
31
CC(C)(C)c1ccc(NC(=O)[C@H](CCCCN)NC(=O)OCC2c3ccccc3-c3ccccc32)cc1 [Compound 105]
100
NCCCCC[C@H](NC(=O)Nc1ccc(OCc2ccccc2)cc1)C(=O)Nc1ccc(C2CCCCC2)cc1 [Compound 121]
102

Dear colleague, could you send me inhibition at 10 µM for each of the items below? Thanks.
1. NCCCCCCNC(=O)[C@@H](NC(=O)OCC1c2ccccc2-c2ccccc21)c1ccccc1 [Compound 313]
2. NCCCC[C@@H](NC(=O)Nc1ccc(-c2ccccc2)cc1)C(=O)Nc1ccc(C2CCCCC2)cc1 [Compound 142]
3. NCCCC[C@H](NC(=O)OCC1c2ccccc2-c2ccccc21)C(=O)N(Cc1ccccc1)C1CCCCC1 [Compound 33]
4. Cc1cc2cc(NC(=O)[C@H](CCCNC(=O)CN)NC(=O)Nc3ccc4c(c3)Cc3ccccc3-4)ccc2[nH]1 [Compound 297]
5. NCCCC[C@H](NC(=O)OCC1c2ccccc2-c2ccccc21)C(=O)NC1CCCCC1 [Compound 22]
6. NCCCCCCNC(=O)[C@@H](NC(=O)Nc1ccc(OCc2ccccc2)cc1)c1ccccc1 [Compound 319]
7. NCCCC[C@H](NC(=O)Nc1ccc(OCc2ccccc2)cc1)C(=O)NCc1ccco1 [Compound 302]
8. Cc1ccc(NC(=O)[C@H](CCCCN)NC(=O)OCC2c3ccccc3-c3ccccc32)cc1 [Compound 20]

[43, 103, 95, 16.5, 14, 71, 5, 18]

Dear colleague, could you send me inhibition at 10 µM for each of the items below? Thanks.
1. Cc1ccc(NC(=O)[C@H](CCCCN)NC(=O)Nc2ccc3c(c2)Cc2ccccc2-3)cc1 [Compound 125]
2. NCCCC[C@H](NC(=O)Nc1ccc(OCc2ccccc2)cc1)C(=O)Nc1ccc(C2CCCCC2)cc1 [Compound 117]
3. NCCCC[C@H](NC(=O)Nc1ccc(OCc2ccccc2)cc1)C(=O)Nc1cccc2c1CCC2 [Compound 321]
4. CC1CCC(NC(=O)[C@H](CCCCN)NC(=O)Nc2ccc(OCc3ccccc3)cc2)CC1 (stereo partly drawn) [Compound 264]
5. Cc1ccc(NC(=O)[C@H](CCCCN)NC(=O)Nc2ccc(OCc3ccccn3)cc2)cc1 [Compound 299]
6. Cc1cc2cc(NC(=O)[C@H](CCNC(=O)CN)NC(=O)Nc3ccc4c(c3)Cc3ccccc3-4)ccc2[nH]1 [Compound 240]
7. COC(=O)c1ccc(COc2ccc(NC(=O)N[C@@H](CCCCN)C(=O)Nc3ccc(C)cc3)cc2)cc1 [Compound 199]
8. O=C(CC1CNCCN1C(=O)Nc1ccc(OCc2ccccc2)cc1)Nc1ccc(C2CCCCC2)cc1 (stereo not drawn) [Compound 163]

1. 100
2. 102
3. 101
4. 41
5. 16
6. 63
7. 39.7
8. 102

Dear colleague, could you send me inhibition at 10 µM for each of the items below? Thanks.
1. NCCCC[C@H](NC(=O)OCC1c2ccccc2-c2ccccc21)C(=O)Nc1ccc2c(c1)CCC2 [Compound 81]
2. Cc1cc2cc(NC(=O)[C@H](CCCCN)NC(=O)Nc3ccc(-c4ccccc4)cc3)ccc2[nH]1 [Compound 94]

1. 101
2. 93

Dear colleague, could you send me inhibition at 10 µM for each of the items below? Thanks.
1. NCCCCC[C@H](NC(=O)NCc1ccccc1)C(=O)Nc1ccc(C2CCCCC2)cc1 [Compound 120]
2. NCCCC[C@H](NC(=O)Nc1ccc(-c2ccccc2)cc1)C(=O)Nc1ccc(C2CCCCC2)cc1 [Compound 119]
3. NCCCC[C@H](NC(=O)OCC1c2ccccc2-c2ccccc21)C(=O)NCc1ccccc1 [Compound 21]
4. NCCCCN(CC(=O)Nc1cccc2[nH]ccc12)C(=O)Nc1ccc(OCc2ccccc2)cc1 [Compound 281]
5. Cc1ccc(NC(=O)C[C@H](CCCCN)NC(=O)Nc2ccc(OCc3ccccc3)cc2)cc1 [Compound 246]
6. NCCCC[C@H](NC(=O)OCC1c2ccccc2-c2ccccc21)C(=O)Nc1ccc(OCc2ccccc2)c(Cl)c1 [Compound 210]

100
102
12
30.5
46.6
104

Looking for the measured inhibition at 10 µM of Cc1ccc(NC(=O)[C@@H](CCCCN)NC(=O)Nc2ccc(OCc3ccccc3)cc2)cc1 [Compound 172] , can you help?
60

Origin of measurements: patent US20080171783A1
